# Target Of Assay: T1, truncated recombinant form of HBeAg containing nine residues of pre-core and the 150 first residues of HBcAg (hepatitis B virus, UniProt P03146 1-150)
# T1 construct: domain: nine residues of pre-core;range 1-150; also called hepatitis B virus e antigen
# T1 sequence (P03146 1-150): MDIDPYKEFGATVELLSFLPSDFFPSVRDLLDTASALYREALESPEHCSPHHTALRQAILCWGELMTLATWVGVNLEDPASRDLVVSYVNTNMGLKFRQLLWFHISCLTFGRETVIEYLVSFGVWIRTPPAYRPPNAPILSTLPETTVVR
# Experimental Protocol: EIA, support-bound peptide, HBeAg 0.67 ug/ml
Endpoint Label: OD (OD)
Form entry: value (OD) — number only.

Binder: ISCRASQSVSTSSYSYMHWY [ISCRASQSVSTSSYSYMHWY (SEQ. ID. No. 17)]
OD / OD: 0.046
--
Binder: LAVSLGQRATISCRASQSVS [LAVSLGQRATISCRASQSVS (SEQ. ID. No. 16)]
OD / OD: 0.024
--
Binder: VKPGASVKISCKASGYSFTG (also called Peptide # 25) [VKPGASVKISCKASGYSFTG (SEQ. ID. No. 28)]
OD / OD: 0.022
--
Binder: CKASGYSFTGYNMNWVKQSH (also called Peptide # 26) [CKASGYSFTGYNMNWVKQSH (SEQ. ID. No. 29)]
OD / OD: 0.027
--
Binder: VKPGASVKLSCKASGYIFTS (also called Peptide # 2; Pept. #2) [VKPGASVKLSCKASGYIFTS (SEQ. ID. No. 5)]
OD / OD: 0.081

Next item in the queue.
[in] Fill in the blank: the reported OD of YNMNWVKQSHGKSLEWIGNI (also called Peptide # 27) [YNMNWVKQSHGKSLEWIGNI (SEQ. ID. No. 30)] is ____.
[out] 0.018
